Data credit: a melting point compilation (Tetko et al.; mined from patent text by program, amines drawn as free bases though some values may be those of a salt)

- MOLECULE: "O=C(O)Cc1ccc2cc(OCc3ccc4ccccc4n3)ccc2c1"
  melting point: "199 to 202 °C"
- MOLECULE: "CCOP(=O)(C/C=C/CNc1c(N)c(=O)c1=O)OCC"
  melting point: "145 to 147 °C"
- MOLECULE: "O=C1c2ccccc2COc2ccc(CCC(=O)N(O)C3CCCCC3)cc21"
  melting point: "146 to 147 °C"
- MOLECULE: "CC(C)NCC(O)COc1ccc(NC(=O)N(C)C)cc1 (stereo unspecified)"
  melting point: "138 to 139 °C"
- MOLECULE: "CC(C)(C)OC(=O)NNCc1cccc(C#N)c1"
  melting point: "75 to 80 °C"
- MOLECULE: "CC=CC1=C(O)C(=O)c2ccccc2C1=O"
  melting point: "133 to 134 °C"
- MOLECULE: "COc1ccc(C(OC(C)=O)c2sccc2C=O)cc1OC (stereo unspecified)"
  melting point: "91 to 92 °C"
- MOLECULE: "N#Cc1cnn2c(C(F)(F)F)cc(-c3ccccn3)nc12"
  melting point: "208 °C"
- MOLECULE: "CCN(CC)c1ccc(C(=O)C#Cc2ccnc3ccccc23)cc1"
  melting point: "163 to 165 °C"
- MOLECULE: "Cc1cc(C)c2ncn(/C=C/C(=O)O)c(=O)c2c1"
  melting point: "284 to 288 °C"
- MOLECULE: "O=C(Nc1cc(F)c(-c2cccnc2)c(F)c1)OCc1ccccc1"
  melting point: "188 to 190 °C"
- MOLECULE: "O=C(/C=C/c1ccc(S(=O)(=O)N2CCN(c3ccc([N+](=O)[O-])cc3)CC2)cc1)NO"
  melting point: "199 to 200 °C"
- MOLECULE: "Cc1ccc(CCN2CCN(c3noc4ccccc34)CC2)c2c1C(C)(C)CC(=O)N2"
  melting point: "170 °C"
- MOLECULE: "O=C(O)c1ccc2nc3n(c(=O)c2c1)CCCC3=Cc1ccccc1"
  melting point: "288 to 290 °C"
- MOLECULE: "CCCc1c(OCCCOc2ccc3c(=O)cc(-c4ccc(C(=O)O)cc4)oc3c2CCC)ccc(C(C)=O)c1O"
  melting point: "226 to 228 °C"
- MOLECULE: "CCCn1c(=O)c2[nH]c([C@@H]3CC[C@H]4CCC[C@H]43)nc2n(CCC)c1=S (relative stereo)"
  melting point: "135 to 137 °C"
- MOLECULE: "Cc1ccc(N2C(=O)NC(=O)C23CCN(Cc2ccccc2)CC3)cc1"
  melting point: "291 to 293 °C"
- MOLECULE: "O=C1N[C@H](c2ccco2)[C@@H]1O"
  melting point: "133 to 135 °C"
- MOLECULE: "CCOC(=O)C(=O)Nc1nc(C(C)C)cs1"
  melting point: "54 to 57 °C"
- MOLECULE: "COc1c(C(=O)NN=Cc2ccc(Cl)cc2)[nH]c2ccccc12"
  melting point: "249 to 251 °C"
- MOLECULE: "CCc1cc(OCc2ccccc2)c2c(Cl)cccc2n1"
  melting point: "78 to 80 °C"

---

melting point by entry:
VALUE_KIND: melting point

- COMPOUND: "COc1ccc(S(=O)(=O)NCc2ccccc2)c2c1oc1ccccc12"
  VALUE_KIND: "melting point"
  RESULT: "180 to 185 °C"
- COMPOUND: "CCN1C(=O)C(C)(C)C(=O)N(C)c2cc(CN(CCn3ccc4oc(C)cc4c3=O)Cc3cnccc3Cl)ccc21"
  VALUE_KIND: "melting point"
  RESULT: "114 to 118 °C"
- COMPOUND: "Cc1c(-c2cccc(C(F)(F)F)c2F)c2cccc(Cl)c2n1CCCNS(C)(=O)=O"
  VALUE_KIND: "melting point"
  RESULT: "168 °C"
- COMPOUND: "O=C(CCCN1CCN(c2ccc(F)cc2)CC1)NC1c2ccccc2C=Cc2ccccc21"
  VALUE_KIND: "melting point"
  RESULT: "233 to 235 °C"
- COMPOUND: "NC(C(=O)O)c1ccc(C(=O)O)cc1-c1ccccc1 (stereo not given)"
  VALUE_KIND: "melting point"
  RESULT: "238 to 240 °C"
- COMPOUND: "C/C(=C\\c1ccc(C#N)cc1)c1ccc2c(c1)C(C)(C)C=CC2(C)C"
  VALUE_KIND: "melting point"
  RESULT: "140 to 142 °C"
- COMPOUND: "COS(=O)c1cc(C(=O)CBr)ccc1C (stereo not given)"
  VALUE_KIND: "melting point"
  RESULT: "123 to 125 °C"
- COMPOUND: "CC(=CC(=O)O)c1cccc([N+](=O)[O-])c1"
  VALUE_KIND: "melting point"
  RESULT: "147 to 149 °C"
- COMPOUND: "CC(C)(C)OC(=O)N(C(=O)OC(C)(C)C)c1cnc(-c2cncc(F)c2)s1"
  VALUE_KIND: "melting point"
  RESULT: "94 to 96 °C"
- COMPOUND: "O=C(O)C1=Cc2cc(Cl)c(Oc3ccc([N+](=O)[O-])cc3)cc2OC1C(F)(F)F (stereo not given)"
  VALUE_KIND: "melting point"
  RESULT: "246 to 248 °C"
- COMPOUND: "N#Cc1cccc(C2=Nc3ccc(CCc4ccccc4)cc3NC(=O)C2)c1"
  VALUE_KIND: "melting point"
  RESULT: "212 to 214 °C"
- COMPOUND: "Cc1cc(C(=O)Nc2ccc(Cl)nc2)ccc1[N+](=O)[O-]"
  VALUE_KIND: "melting point"
  RESULT: "290 °C"
- COMPOUND: "CCOC(=O)COCCn1c(=O)[nH]c2ccccc2c1=O"
  VALUE_KIND: "melting point"
  RESULT: "115 to 116 °C"
- COMPOUND: "O=[N+]([O-])c1cccnc1Nc1ccccc1F"
  VALUE_KIND: "melting point"
  RESULT: "97 °C"
- COMPOUND: "CC(C)N(Cc1nc(-c2ncn3c2CN(C)C(=O)c2ccccc2-3)no1)C(C)C"
  VALUE_KIND: "melting point"
  RESULT: "117 to 119 °C"
- COMPOUND: "N#Cc1ccc(OCCc2c[nH]cn2)cc1"
  VALUE_KIND: "melting point"
  RESULT: "181 to 183 °C"
- COMPOUND: "O=C1CCN(Cc2cnc(Nc3n[nH]c4ccc(-c5ncccc5Cl)cc34)s2)CC1"
  VALUE_KIND: "melting point"
  RESULT: "187 to 188 °C"
- COMPOUND: "CSc1nccc(C(C)=NO)n1"
  VALUE_KIND: "melting point"
  RESULT: "150 to 152 °C"
- COMPOUND: "CC(=O)NC1CCC(=O)N2CCCC(C(=O)NC(CC(=O)OC(C)(C)C)C(=O)COC(=O)c3c(Cl)cccc3Cl)N2C1=O (stereo not given)"
  VALUE_KIND: "melting point"
  RESULT: "80 to 125 °C"
- COMPOUND: "CC(C)c1cc(C(C)C)c(CC(=O)NS(=O)(=O)Oc2c(C(C)C)cc(N(CCO)CCO)cc2C(C)C)c(C(C)C)c1"
  VALUE_KIND: "melting point"
  RESULT: "143 to 146 °C"
